The reader will find reported MIC values listed item by item below.
- System: E. coli 1346
Record the value in µg/mL, omitting the unit from your answer.

Please review the following examples before continuing.
Oc1cccc(-c2nc3ccc(-c4ccc5nc(-c6cccc(O)c6)[nH]c5c4)cc3[nH]2)c1 ... 2
COc1ccc(-c2nc3ccc(-c4ccc5nc(-c6ccc(OC)cc6)[nH]c5c4)cc3[nH]2)cc1 ... 8

# MIC measured on E. coli 1346 for item Oc1ccc(-c2nc3ccc(-c4ccc5nc(-c6ccc(O)c(F)c6)[nH]c5c4)cc3[nH]2)cc1F = 32

The compound CCOc1ccc(-c2nc3ccc(-c4ccc5nc(-c6ccc(OCC)cc6)[nH]c5c4)cc3[nH]2)cc1 , when measured on E. coli 1346, yielded MIC of 16

----------
Please consider the recorded MIC for S. aureus 101 in what follows.
Numeric answer only, unit mg/L assumed.

For orientation, consider the following solved cases.
Oc1cccc(-c2nc3ccc(-c4ccc5nc(-c6cccc(O)c6)[nH]c5c4)cc3[nH]2)c1 ... 0.12
Cc1cc(-c2nc3ccc(-c4ccc5nc(-c6ccc(O)c(C)c6)[nH]c5c4)cc3[nH]2)ccc1O ... 0.5

# input for lookup
Sample CCOc1ccc(-c2nc3ccc(-c4ccc5nc(-c6ccc(O)cc6)[nH]c5c4)cc3[nH]2)cc1 , system: S. aureus 101. Its MIC is 0.5

----------
- Test system: P. aeroginosa BA
Structures can show the parent of a compound that is named as a salt.
Property: MIC

Cc1cc(-c2nc3ccc(-c4ccc5nc(-c6ccc(O)c(C)c6)[nH]c5c4)cc3[nH]2)ccc1O ... > 128 µg/mL
COc1cc(-c2nc3ccc(-c4ccc5nc(-c6ccc(O)c(OC)c6)[nH]c5c4)cc3[nH]2)ccc1O ... > 128 µg/mL
COc1ccc(-c2nc3ccc(-c4ccc5nc(-c6ccc(OC)cc6)[nH]c5c4)cc3[nH]2)cc1 ... > 128 µg/mL
CCOc1ccc(-c2nc3ccc(-c4ccc5nc(-c6ccc(OCC)cc6)[nH]c5c4)cc3[nH]2)cc1 ... > 128 µg/mL
Oc1ccc(-c2nc3ccc(-c4ccc5nc(-c6ccc(O)cc6)[nH]c5c4)cc3[nH]2)cc1 [Example 5, hydrochloride] ... > 128 µg/mL
Nc1ccc(-c2nc3ccc(-c4ccc5nc(-c6ccc(N)cc6)[nH]c5c4)cc3[nH]2)cc1 ... > 128 µg/mL

Now, please, on to the next compound.
Kindly note: P. aeroginosa BA, c1coc(-c2nc3ccc(-c4ccc5nc(-c6ccco6)[nH]c5c4)cc3[nH]2)c1 , MIC value reported: > 128 µg/mL

----------
- System: S. aureus 101
Where a name gives a salt, the structure may show the parent alone.
Reported MIC values follow for various molecules

// molecule Oc1ccc(-c2nc3ccc(-c4ccc5nc(-c6ccc(O)c(F)c6)[nH]c5c4)cc3[nH]2)cc1F [Example 1] , assay S. aureus 101, MIC value: 8 µg/mL

Record Oc1ccc(-c2nc3ccc(-c4ccc5nc(-c6ccc(O)cc6)[nH]c5c4)cc3[nH]2)cc1 [Example 5, hydrochloride] has S. aureus 101 MIC equal to > 32 µg/mL

Field MIC (S. aureus 101), entry N#Cc1ccc(-c2nc3ccc(-c4ccc5nc(-c6ccc(O)cc6)[nH]c5c4)cc3[nH]2)cc1 [Example 12] : 4 µg/mL

----------
What follows is a collection of MIC values obtained with E. coli 1346.
Enter your answer as a number in µg/mL; do not include the unit.

Reference set, count: 4
Cc1cc(-c2nc3ccc(-c4ccc5nc(-c6ccc(O)c(C)c6)[nH]c5c4)cc3[nH]2)ccc1O [Example 2] ... 2
N#Cc1ccc(-c2nc3ccc(-c4ccc5nc(-c6ccc(O)cc6)[nH]c5c4)cc3[nH]2)cc1 [Example 12] ... 1
COc1cc(-c2nc3ccc(-c4ccc5nc(-c6ccc(O)c(OC)c6)[nH]c5c4)cc3[nH]2)ccc1O [Example 3] ... 64
CCOc1ccc(-c2nc3ccc(-c4ccc5nc(-c6ccc(O)cc6)[nH]c5c4)cc3[nH]2)cc1 [Example 11] ... 0.25

Next molecule, please.
E. coli 1346 data for c1coc(-c2nc3ccc(-c4ccc5nc(-c6ccco6)[nH]c5c4)cc3[nH]2)c1 [Example 10, 2,2'-Difuran-2-yl-6,6'-dibenzimidazole] ; its MIC: 8
